binders and their reported Fold Increase in Potency (against Mu007), T1165.17 cell proliferation assay
assayTarget: human IL-1β (human, UniProt P01584 117-269)
measurementNotes: cell-based or functional assay
Give just the numeric value; fold need not be written.

Study these solved cases before continuing.
- W18 (IgG1) (antibody, V domains shown, humanized, IgG1 kappa) VH: QVQLVQSGAEVKKPGSSVKVSCKASGYTFDRYWIEWVRQAPGQGLEWMGEILPGSGTINYNEKFKGRVTITADKSTSTAYMELSSLRSEDTAVYYCARMYYDYDQGFDNWGQGTLVTVSS VL: DIQMTQSPSSLSASVGDRVTITCKFSQDIDRFLSWFQQKPGKAPKSLIYRVKRLVDGVPSRFSGSGSGTDFTLTISSLQPEDFATYYCVQYDEFPYTFGGGTKVEIKR: 10
- U43 (IgG1) (antibody, V domains shown, humanized, IgG1 kappa) VH: QVQLVQSGAEVKKPGSSVKVSCKASGYTFDRYWIEWVRQAPGQGLEWMGEILPGSGDINYNEKFKGRVTITADKSTSTAYMELSSLRSEDTAVYYCARMYYDYDQGFSLWGQGTLVTVSS VL: DIQMTQSPSSLSASVGDRVTITCKASQDIDRFLSWFQQKPGKAPKSLIYRVKRLVDGVPSRFSGSGSGTDFTLTISSLQPEDFATYYCVQYDEFPYTFGGGTKVEIKR: 5
- Mu007 (antibody, V domains shown) VH: QVQLQQSGAELMKPGASVKISCKATGYTFSRYWIEWIKQRPGHGLEWIGEILPGNGNINYNEKFKGKATISADSSSETAYMQLSSLSSEDSAVYYCSTIYYDYDQGFTYWGQGTLVTVSA VL: DIKMTQSPSSMYASLGERVTITCKASQDIDRYLSWFQQKPGKSPKTLIYRVKRLVDGVPSRFSGSASGQDYSLTISSLQYEDMGIYYCLQYDEFPYTFGGGTKLEIK: 1
- W13 (IgG1) (antibody, V domains shown, humanized, IgG1 kappa) VH: QVQLVQSGAEVKKPGSSVKVSCKASGYTFDRYWIEWVRQAPGQGLEWMGEILPGSGDINYNEKFKGRVTITADKSTSTAYMELSSLRSEDTAVYYCARMYYDYDQGFDYWGQGTLVTVSS VL: DIQMTQSPSSLSASVGDRVTITCKFSQDIDRFLTWFQQKPGKAPKSLIYRVKRLVDGVPSRFSGSGSGTDFTLTISSLQPEDFATYYCIQYDEFPYTFGGGTKVEIKR: 17

Field: next binder
Fold Increase in Potency (against Mu007), T1165.17 cell proliferation assay reported for this binder W20 (IgG1) (antibody, V domains shown, humanized, IgG1 kappa) VH: QVQLVQSGAEVKKPGSSVKVSCKASGYTFDRYWIEWVRQAPGQGLEWMGEILPGSGDINYNEKFKGRVTITADKSTSTAYMELSSLRSEDTAVYYCARMYYDYDQGFDYWGQGTLVTVSS VL: DIQMTQSPSSLSASVGDRVTITCKFSQDIDRFLSWFQQKPGKAPKSLIYRVKRLVDGVPSRFSGSGSGTDFTLTISSLQPEDFATYYCVQYDEFPYTFGGGTKVEIKR : 17
